# System Tested: T1, human TL1A extracellular domain with N-terminal HIS and FLAG tag (human, UniProt O95150 72-251)
# T1 construct: the whole entry is named
# T1 sequence: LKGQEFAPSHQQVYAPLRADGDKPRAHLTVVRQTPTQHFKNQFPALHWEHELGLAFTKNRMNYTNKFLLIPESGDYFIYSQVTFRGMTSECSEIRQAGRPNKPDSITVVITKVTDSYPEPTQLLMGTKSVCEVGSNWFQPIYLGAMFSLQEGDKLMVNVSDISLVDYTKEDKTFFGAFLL
# Test Description: SPR Run 4, purified Ab captured on Protein A, TL1A 5 ug/mL, timepoint 44
Assay Endpoint: TL1A Binding Level (Early) (RU)
One number for each entry, in RU.

Example cases with answers are listed next.
• 320-316 (antibody, human IgG1, name in Kabat numbering, V domains shown, human IgG1, lambda) VH: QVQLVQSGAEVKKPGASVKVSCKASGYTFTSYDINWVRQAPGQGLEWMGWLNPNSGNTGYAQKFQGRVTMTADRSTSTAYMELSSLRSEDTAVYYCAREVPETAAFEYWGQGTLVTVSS VL: QSVLTQPPSVSGAPGQRVTISCTSSSSDIGAGLGVHWYQQLPGTAPKLLIEGYYNRPSGVPDRFSGSKSGTSASLTITGLLPEDEGDYYCWSYDGTLSALFGGGTKLTVLG = 65
• 320-340 (antibody, human IgG1, name in Kabat numbering, V domains shown, human IgG1, lambda) VH: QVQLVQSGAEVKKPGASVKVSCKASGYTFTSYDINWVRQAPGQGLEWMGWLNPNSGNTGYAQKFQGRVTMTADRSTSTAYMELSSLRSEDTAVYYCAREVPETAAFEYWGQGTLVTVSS VL: QSVLTQPPSVSGAPGQRVTISCTSSSSDIGAGLGVHWYQQLPGTAPKLLIEGYYNRPSGVPDRFSGSKSGTSASLTITGLLPEDEGDYYCQSYDATLSALFGGGTKLTVLG = 145

Briefly, TL1A Binding Level (Early) measured for 320-348 (antibody, human IgG1, name in Kabat numbering, V domains shown, human IgG1, lambda) VH: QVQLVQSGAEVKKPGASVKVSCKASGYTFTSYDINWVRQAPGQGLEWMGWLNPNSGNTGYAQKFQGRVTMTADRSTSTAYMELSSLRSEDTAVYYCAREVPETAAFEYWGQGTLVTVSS VL: QSVLTQPPSVSGAPGQRVTISCTSSSSDIGAGLGVHWYQQLPGTAPKLLIEGYYNRPSGVPDRFSGSKSGTSASLTITGLLPEDEGDYYCQSYDYTLSALFGGGTKLTVLG : 144
